Experiment: Hemolytic activity against RBC (unknown origin) at 100 uM
Type: ADME, cell-based, Erythrocyte
Conditions: red blood cells (erythrocytes); read-out: Activity
reported-endpoint: hemolysis at 100 µM

Sure, the documented hemolysis at 100 µM for CC[C@@H](C)[C@@H](NC(=O)[C@H]1CCCN1C(=O)[C@@H](CCCNC(=N)N)NC(=O)[C@H]1CCCN1C(=O)[C@@H](Cc1cnc[nH]1)NC(=O)[C@@H](CO)NC(=O)[C@H](NC(=O)[C@H]1CCCN1C(=O)[C@@H](CCCNC(=N)N)NC(=O)[C@H]1CCCN1C(=O)[C@@H](CO)NC(=O)[C@@H](Cc1ccc(O)cc1)NC(=O)[C@H]1CCCN1C(=O)[C@@H](CCCNC(=N)N)NC(=O)[C@H]1CCCN1C(=O)[C@@H](CCCNC(=N)N)NC(=O)CCCCCNC(=O)[C@H](N)CCCNC(=N)N)[C@H](C)O)C(=O)N[C@H](CCCNC(=N)N)C(=O)N[C@@H](C(N)=O)C(C)C is < 1%

Entry under test: CC[C@H](C)[C@H](NC(=O)[C@@H]1CCCN1C(=O)[C@H](CCCNC(=N)N)NC(=O)[C@@H]1CCCN1C(=O)[C@H](Cc1cnc[nH]1)NC(=O)[C@H](CO)NC(=O)[C@@H](NC(=O)[C@@H]1CCCN1C(=O)[C@H](CCCNC(=N)N)NC(=O)[C@@H]1CCCN1C(=O)[C@H](CO)NC(=O)[C@H](Cc1ccc(O)cc1)NC(=O)[C@@H]1CCCN1C(=O)[C@H](CCCNC(=N)N)NC(=O)[C@@H]1CCCN1C(=O)[C@H](CCCNC(=N)N)NC(=O)CCCCCNC(=O)[C@@H](N)CCCNC(=N)N)[C@@H](C)O)C(=O)N[C@@H](CCCNC(=N)N)C(=O)N[C@H](C(N)=O)C(C)C . Its hemolysis at 100 µM was < 1%

====

System: Escherichia coli
Assay: Antibacterial activity against multi-drug resistant Escherichia coli NMI 3548/14 assessed as reduction in microbial growth incubated for 20 hrs
Type: functional
Conditions: NMI 3548/14, 20 h
reported-endpoint: MIC (µg/mL)
Value expressed in µg/mL; do not type the unit.

// NCC[C@H](O)C(=O)N[C@@H]1C[C@H](N)[C@@H](O[C@H]2O[C@H](CN)[C@@H](O)[C@H](O)[C@H]2O)[C@H](O)[C@H]1O[C@H]1O[C@H](CO)[C@@H](O)[C@H](N)[C@H]1O [AMIKACIN] : MIC value = 8

# compound CN(C)c1cc(NC(=O)CNC(C)(C)C)c(O)c2c1C[C@H]1C[C@H]3[C@H](N(C)C)C(O)=C(C(N)=O)C(=O)[C@@]3(O)C(O)=C1C2=O [TIGECYCLINE] ; its MIC = 16

Note to self: MIC recorded for C[C@@H](O)[C@H]1C(=O)N2C(C(=O)O)=C(SCCNC=N)C[C@H]12 [IMIPENEM ANHYDROUS] was 2

Lookup result for CN(C)[C@@H]1C(O)=C(C(N)=O)C(=O)[C@@]2(O)C(O)=C3C(=O)c4c(O)cccc4[C@@](C)(O)[C@H]3C[C@@H]12 [TETRACYCLINE] ; measured MIC: 8

Per the records, this compound ( CO/N=C(\C(=O)N[C@@H]1C(=O)N2C(C(=O)O)=C(COC(C)=O)CS[C@H]12)c1csc(N)n1 [CEFOTAXIME] ) has MIC equal to 16

Note to self: MIC recorded for CC(C)(O/N=C(\C(=O)N[C@@H]1C(=O)N2C(C(=O)[O-])=C(C[n+]3ccccc3)CS[C@H]12)c1csc(N)n1)C(=O)O [CEFTAZIDIME] was 2
